- System Tested: Adenosine receptor A1 (Rattus norvegicus)
- Sequence (whole entry): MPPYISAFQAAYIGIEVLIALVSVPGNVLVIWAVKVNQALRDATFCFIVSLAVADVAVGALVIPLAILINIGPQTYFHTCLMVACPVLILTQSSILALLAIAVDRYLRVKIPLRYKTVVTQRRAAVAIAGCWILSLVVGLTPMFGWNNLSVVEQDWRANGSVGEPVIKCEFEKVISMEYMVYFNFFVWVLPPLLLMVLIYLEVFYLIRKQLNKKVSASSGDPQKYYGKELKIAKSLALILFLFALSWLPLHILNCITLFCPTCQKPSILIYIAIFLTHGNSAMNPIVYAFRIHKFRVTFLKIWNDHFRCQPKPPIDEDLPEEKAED
- Method Description: Displacement of [3H]DPCPX form adenosine A1 receptor in rat cortex membrane at 1 uM
- Assay type: cell membranes

| Compound | Activity / % |
| --- | --- |
| C=CCn1c(=O)c2[nH]c(Cc3cccs3)nc2n(Cc2ccco2)c1=O | 23 |
| CCn1c(=O)c2[nH]c(Cc3ccccc3)nc2n(Cc2ccco2)c1=O | 41 |
| CCS(=O)(=O)CCn1c(=O)c2[nH]c(Cc3ccccc3)nc2n(Cc2ccco2)c1=O | 2 |
| COCCn1c(=O)c2[nH]c(Cc3c(F)cccc3F)nc2n(Cc2ccco2)c1=O | 28 |
| CC[S+]([O-])CCn1c(=O)c2[nH]c(Cc3ccccc3)nc2n(Cc2ccco2)c1=O (stereo not given) | 1 |
